- Target desc: T1, I53_dn5B trimer
- T1 chain: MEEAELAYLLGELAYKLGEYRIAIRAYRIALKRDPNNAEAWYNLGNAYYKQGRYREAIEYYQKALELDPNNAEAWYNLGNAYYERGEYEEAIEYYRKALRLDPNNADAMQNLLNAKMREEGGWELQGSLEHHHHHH
- Protocol: nanoparticle assembly grade, Table 3
Readout name: binding result

Use these answered entries as a reference point.
[
  {
    "Binder": "SEQ ID NO 51 (I53_dn5A_3gly) (designed binder, N-linked glycans at sequons 84-NDT-86; 118-NDT-120; 130-NAT-132) KYDGSKLRIGILHARGNAEIILELVLGALKRLQEFGVKRENIIIETVPGSFELPYGSKLFVEKQKRLGKPLDAIIPIGVLIRGNDTHFDYIADSTTHQLMKLNFELGIPVIFGVLTTNDTEQAEERAGTNATNHGEDWGAAAVEMATKFNLEEQKLISEEDLHHHHHH",
    "binding result": "binds"
  },
  {
    "Binder": "I53_dn5A_2gly pentamer (designed binder) KYDGSKLRIGILHARGNAEIILELVLGALKRLQEFGVKRENIIIETVPGSFELPYGSKLFVEKQKRLGKPLDAIIPIGVLIRGNDTHFDYIADSTTHQLMKLNFELGIPVIFGVLTTNSTEQAEERAGTKAGNHGEDWGAAAVEMATKFNLEEQKLISEEDLHHHHHH",
    "binding result": "binds"
  },
  {
    "Binder": "SEQ ID NO 52 (I53_dn5A_2gly) (designed binder, N-linked glycans at sequons 83-NDT-85; 130-NAT-132) KYDGSKLRIGILHARGNAEIILELVLGALKRLQEFGVKRENIIIETVPGSFELPYGSKLFVEKQKRLGKPLDAIIPIGVLIRNDTAHFDYIADSTTHQLMKLNFELGIPVIFGVLTTESDEQAEERAGTNATNHGEDWGAAAVEMATKFNLEEQKLISEEDLHHHHHH",
    "binding result": "binds"
  },
  {
    "Binder": "SEQ ID NO 55 (I53_dn5A_2gly) (designed binder, N-linked glycans at sequons 120-NET-122; 130-NAT-132) KYDGSKLRIGILHARGNAEIILELVLGALKRLQEFGVKRENIIIETVPGSFELPYGSKLFVEKQKRLGKPLDAIIPIGVLIRGSTAHFDYIADSTTHQLMKLNFELGIPVIFGVLTTESNETAEERAGTNATNHGEDWGAAAVEMATKFNLEEQKLISEEDLHHHHHH",
    "binding result": "binds"
  },
  {
    "Binder": "SEQ ID NO 53 (I53_dn5A_2gly) (designed binder, N-linked glycans at sequons 84-NDT-86; 131-NGT-133) KYDGSKLRIGILHARGNAEIILELVLGALKRLQEFGVKRENIIIETVPGSFELPYGSKLFVEKQKRLGKPLDAIIPIGVLIRGNDTHFDYIADSTTHQLMKLNFELGIPVIFGVLTTESDEQAEERAGTKNGTHGEDWGAAAVEMATKFNLEEQKLISEEDLHHHHHH",
    "binding result": "binds"
  }
]

Respond only with binding result recorded for SEQ ID NO 49 (I53_dn5A_3gly) (designed binder, N-linked glycans at sequons 83-NET-85; 118-NDT-120; 130-NAT-132) KYDGSKLRIGILHARGNAEIILELVLGALKRLQEFGVKRENIIIETVPGSFELPYGSKLFVEKQKRLGKPLDAIIPIGVLIRNETAHFDYIADSTTHQLMKLNFELGIPVIFGVLTTNDTEQAEERAGTNATNHGEDWGAAAVEMATKFNLEEQKLISEEDLHHHHHH
binds

Note down binding result recorded for SEQ ID NO 50 (I53_dn5A_3gly) (designed binder, N-linked glycans at sequons 84-NDT-86; 120-NET-122; 131-NGT-133) KYDGSKLRIGILHARGNAEIILELVLGALKRLQEFGVKRENIIIETVPGSFELPYGSKLFVEKQKRLGKPLDAIIPIGVLIRGNDTHFDYIADSTTHQLMKLNFELGIPVIFGVLTTESNETAEERAGTKNGTHGEDWGAAAVEMATKFNLEEQKLISEEDLHHHHHH
binds

Each recorded value in this set is attributed to patent US20240042018A1.
